The reader will find reported mass density values listed item by item below.
- Test Protocol: xn = mol fraction of the nth substance listed
- Condition Notes: 303.15 K; 101.3 kPa; Liquid; x2 = 0.5
Give just the numeric value; kg/m3 need not be written.

Sample records with mass density:
CCCCC(C)O (centres undefined) [2-hexanol] + CCCCN    777.7
CCCC(O)CC (centres undefined) [3-hexanol] + CCCCN    780.4
CC(C)CC(C)O (centres undefined) [4-methyl-2-pentanol] + CCCCN    772.8

Query compound follows.
Qu. So what's the measured mass density for this one? CCCC(C)CO (centres undefined) [2-methyl-1-pentanol] + CCCCN
Ans. 783.6

----------
- Test Protocol: xn = mol fraction of the nth substance listed
- Condition Notes: 323.15 K; 101.3 kPa; Liquid; x2 = 0.9
± gives the expanded uncertainty stated by the source.
Property: viscosity

Before answering, review these 3 worked examples.
CCCC(O)CC (centres undefined) [3-hexanol] + CCCCN    0.4 ± 0.02 mPa·s
CCCCC(C)O (centres undefined) [2-hexanol] + CCCCN    0.4 ± 0.02 mPa·s
CC(C)CC(C)O (centres undefined) [4-methyl-2-pentanol] + CCCCN    0.41 ± 0.02 mPa·s

Switching to the query record.
Qu. Given the entry CCCC(C)(C)O [2-methyl-2-pentanol] + CCCCN , report its measured viscosity.
Ans. 0.41 ± 0.02 mPa·s

----------
- Test Protocol: xn = mol fraction of the nth substance listed
- Condition Notes: 313.15 K; 101.3 kPa; Liquid; x2 = 0.5
Property: mass density (kg/m3)
# value in kg/m3; strip the unit string

Below, 3 compounds whose answers are already recorded.
CCCC(O)CC (centres undefined) [3-hexanol] + CCCCN    772
CCCCC(C)O (centres undefined) [2-hexanol] + CCCCN    769.4
CC(C)CC(C)O (centres undefined) [4-methyl-2-pentanol] + CCCCN    764.6

Turning now to a further compound:
Qu. Look at this compound and give its reported mass density. CCCC(C)CO (centres undefined) [2-methyl-1-pentanol] + CCCCN
Ans. 775.7

----------
- Test Protocol: xn = mol fraction of the nth substance listed
- Condition Notes: 303.15 K; 101.3 kPa; Liquid; x2 = 0.1
The reader will find reported viscosity values listed item by item below.
Note: unit mPa·s is implicit; provide only the numeric part.

# example entries with known answers
CCCC(C)(C)O [2-methyl-2-pentanol] + CCCCN    2.62
CCCCC(C)O (stereo not given) [2-hexanol] + CCCCN    2.67
CCCC(O)CC (stereo not given) [3-hexanol] + CCCCN    2.85

Qu. Look at this molecule and give its reported viscosity. CC(C)CC(C)O (stereo not given) [4-methyl-2-pentanol] + CCCCN
Ans. 2.61

Qu. For CCCC(C)CO (stereo not given) [2-methyl-1-pentanol] + CCCCN , what is its reported viscosity?
Ans. 3.38

----------
Attribute: mass density
- Test Protocol: xn = mol fraction of the nth substance listed
- Condition Notes: 303.15 K; 101.3 kPa; Liquid; x2 = 0.9
Field format: number, assumed kg/m3, no unit text.

// known answers, use as guide
CCCCC(C)O (centres undefined) [2-hexanol] + CCCCN    742.1
CC(C)CC(C)O (centres undefined) [4-methyl-2-pentanol] + CCCCN    740.8
CCCC(O)CC (centres undefined) [3-hexanol] + CCCCN    742

Moving on to another molecule below.
Qu. # lookup: mass density of CCCC(C)(C)O [2-methyl-2-pentanol] + CCCCN
Ans. 742.4

----------
- Test Protocol: xn = mol fraction of the nth substance listed
- Condition Notes: 303.15 K; 101.3 kPa; Liquid; x2 = 0.2
Listed next: entries and their corresponding mass density.
State the answer as a number, implicitly in kg/m3.

Below are worked cases with known answers.
CCCCC(C)O (stereo not given) [2-hexanol] + CCCCN    796.7
CCCC(C)(C)O [2-methyl-2-pentanol] + CCCCN    801.5
CCCC(O)CC (stereo not given) [3-hexanol] + CCCCN    801.4
CCCC(C)CO (stereo not given) [2-methyl-1-pentanol] + CCCCN    804.8

Turning now to a further record.
Qu. Please report the recorded mass density for CC(C)CC(C)O (stereo not given) [4-methyl-2-pentanol] + CCCCN .
Ans. 790.7

----------
Catalogue of mass density readings, one per entry.
- Test Protocol: xn = mol fraction of the nth substance listed
- Condition Notes: 303.15 K; 101.3 kPa; Liquid; x2 = 0.1
Your answer should be a plain number; it is taken to be in kg/m3.

// worked examples, mass density included
CCCCC(C)O (stereo not given) [2-hexanol] + CCCCN    802
CCCC(C)(C)O [2-methyl-2-pentanol] + CCCCN    806.7
CCCC(C)CO (stereo not given) [2-methyl-1-pentanol] + CCCCN    810.3
CC(C)CC(C)O (stereo not given) [4-methyl-2-pentanol] + CCCCN    794.8

Qu. Return reported mass density; argument: CCCC(O)CC (stereo not given) [3-hexanol] + CCCCN
Ans. 806.4

----------
- Test Protocol: xn = mol fraction of the nth substance listed
- Condition Notes: 323.15 K; 101.3 kPa; Liquid; x2 = 0.3
Property: mass density (kg/m3)
Please reply with the bare figure in kg/m3 and do not write the unit itself.

CCCCC(C)O (centres undefined) [2-hexanol] + CCCCN    775.3
CC(C)CC(C)O (centres undefined) [4-methyl-2-pentanol] + CCCCN    768.9
CCCC(O)CC (centres undefined) [3-hexanol] + CCCCN    776.9

Qu. I have this molecule here, CCCC(C)(C)O [2-methyl-2-pentanol] + CCCCN , and I need its recorded mass density.
Ans. 778.2

----------
- Test Protocol: xn = mol fraction of the nth substance listed
- Condition Notes: 323.15 K; 101.3 kPa; Liquid; x2 = 0.1
Property: viscosity; scope: individual compounds
Numeric only. Scale: mPa·s

Example entries begin here.
CC(C)CC(C)O (stereo not given) [4-methyl-2-pentanol] + CCCCN    1.4
CCCC(O)CC (stereo not given) [3-hexanol] + CCCCN    1.44
CCCC(C)(C)O [2-methyl-2-pentanol] + CCCCN    1.34
CCCC(C)CO (stereo not given) [2-methyl-1-pentanol] + CCCCN    1.85

Okay, now this compound:
Qu. If you can, please state the reported viscosity value of CCCCC(C)O (stereo not given) [2-hexanol] + CCCCN .
Ans. 1.45

----------
- Condition Notes: 323.15 K; 101.3 kPa; Liquid
Property: mass density (kg/m3)
Reply with just the number (in kg/m3).

Please review the entries below; each comes with its answer.
CCCCC(C)O (stereo unspecified)    790.1
CCCC(C)CO (stereo unspecified)    801.5

Qu. I'd like to know its mass density. The molecule in question is CCCC(O)CC (stereo unspecified)
Ans. 792.8

Qu. Need mass density, item "CCCCN"
Ans. 712.7

Qu. Given CC(C)CC(C)O (stereo unspecified) , state its recorded mass density.
Ans. 782

Qu. Need mass density of "CCCC(C)(C)O" , thanks.
Ans. 793.5

----------
- Test Protocol: xn = mol fraction of the nth substance listed
- Condition Notes: 313.15 K; 101.3 kPa; Liquid; x2 = 0.3
± gives the expanded uncertainty stated by the source.
mass density: recorded values
# answer = value followed by unit

Below: 3 compounds and their reported mass density.
CCCC(C)(C)O [2-methyl-2-pentanol] + CCCCN    787.2 ± 1 kg/m3
CCCC(O)CC (centres undefined) [3-hexanol] + CCCCN    787.5 ± 1.1 kg/m3
CCCCC(C)O (centres undefined) [2-hexanol] + CCCCN    783.7 ± 1 kg/m3

Attention now turns to another entry.
Qu. Value lookup for mass density; key = CC(C)CC(C)O (centres undefined) [4-methyl-2-pentanol] + CCCCN
Ans. 777.3 ± 1 kg/m3

----------
- Test Protocol: xn = mol fraction of the nth substance listed
- Condition Notes: 323.15 K; 101.3 kPa; Liquid; x2 = 0.2
Property: viscosity (mPa·s)
Expressed in mPa·s, but write only the number.

Before answering, review these 2 worked examples.
CCCC(C)(C)O [2-methyl-2-pentanol] + CCCCN    1.2
CCCC(O)CC (stereo not given) [3-hexanol] + CCCCN    1.24

Qu. What viscosity value was documented for this compound, CC(C)CC(C)O (stereo not given) [4-methyl-2-pentanol] + CCCCN ?
Ans. 1.21

Qu. Report viscosity for CCCC(C)CO (stereo not given) [2-methyl-1-pentanol] + CCCCN please.
Ans. 1.57

Qu. Need viscosity, item CCCCC(C)O (stereo not given) [2-hexanol] + CCCCN
Ans. 1.26

----------
- Condition Notes: 323.15 K; 101.3 kPa; Liquid
In this section, each of the compounds is paired with its reported viscosity.
Reply numerically in mPa·s, unit not repeated.

These solved cases illustrate the format of a correct answer.
CCCC(C)(C)O    1.46
CCCC(C)CO (stereo unspecified)    2.25
CCCC(O)CC (stereo unspecified)    1.58
CC(C)CC(C)O (stereo unspecified)    1.55

Qu. Data request, read-out viscosity, for CCCCC(C)O (stereo unspecified)
Ans. 1.64

Qu. Which viscosity value is on record for "CCCCN" ?
Ans. 0.36
